TESTED_TARGET: UniProtKB O14842
PROTOCOL_TEXT: Induction of Ca2+ (calcium flux assay) using human GPR40 expression cell line
SETTINGS: read-out: EC0.5
pEC50: −log10 of the molar value.
pEC50 values for the molecules below.

Please give the measured pEC50 for this molecule: `CC#C[C@@H](CC(=O)O)c1ccc(OCc2cc(C)c3c(cnn3CC3CCCC3)c2)cc1`
7.30 to 9.00

Please give the measured pEC50 for this molecule: `CC#C[C@@H](CC(=O)O)c1ccc(OCc2ccc3ccn(Cc4cnc(C)cn4)c3c2C)cc1`
7.30 to 9.00

Please give the measured pEC50 for this molecule: `CC#C[C@@H](CC(=O)O)c1ccc(OCc2ccc3ccn(Cc4ccc(CS(C)(=O)=O)cc4)c3c2C)cc1`
7.30 to 9.00

---
Please give the measured pEC50 for this molecule: `CC#C[C@@H](CC(=O)O)c1ccc(OCc2cccc3c(CCCC)nn(C)c23)cc1`
7.30 to 9.00

Please give the measured pEC50 for this molecule: `CC#C[C@@H](CC(=O)O)c1ccc(OCc2cc(C)c3c(cnn3C3CCCC3)c2)cc1`
7.30 to 9.00

Please give the measured pEC50 for this molecule: `CC#C[C@@H](CC(=O)O)c1ccc(OCc2ccc3nnn(CC(C)C)c3c2)cc1`
6.30 to 7.30

* * *

TESTED_TARGET: human GPR40 (Homo sapiens, UniProt O14842)
Sequence (O14842 whole entry): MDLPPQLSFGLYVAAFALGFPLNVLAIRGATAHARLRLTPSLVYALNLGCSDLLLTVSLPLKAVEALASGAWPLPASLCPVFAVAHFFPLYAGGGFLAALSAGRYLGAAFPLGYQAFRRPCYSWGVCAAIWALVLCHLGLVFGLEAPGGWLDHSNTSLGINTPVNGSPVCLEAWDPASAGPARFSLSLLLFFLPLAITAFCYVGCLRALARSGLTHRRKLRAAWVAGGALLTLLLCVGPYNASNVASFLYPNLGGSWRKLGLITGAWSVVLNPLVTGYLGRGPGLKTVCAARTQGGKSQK
PROTOCOL_TEXT: Induction of Ca2+ (calcium flux assay) using human GPR40 expression cell line
SETTINGS: read-out: EC0.5
Protocol: Evaluation of the Test Compounds for Induction of Ca^2+ Using Human GPR40 Expression Cell Line The cell line expressing human GPR40 was generated by transfection of the GPR40 expression vector into CHO-K1 cell, and used in the following calcium flux assay. […] After the above pre-treatment, the change in the intracellular calcium concentration when each concentration of the test compound solutions was added at 50 μl was measured by FlexStation II^384. […]
PROPERTY: EC50

Please give the measured EC50 for this compound: CC#C[C@@H](CC(=O)O)c1ccc(OCc2ccc3ccn(Cc4cscn4)c3c2C)cc1 [Example 56]
1 to 50 nM

Please give the measured EC50 for this compound: CC#C[C@@H](CC(=O)O)c1ccc(OCc2ccc3c(cnn3Cc3cccnc3)c2)cc1 [Example 147]
1 to 50 nM

Please give the measured EC50 for this compound: CC#C[C@@H](CC(=O)O)c1ccc(OCc2ccc3cn(Cc4cccnc4)nc3c2)cc1 [Example 80]
≥ 500 nM

Please give the measured EC50 for this compound: CC#C[C@@H](CC(=O)O)c1ccc(OCc2ccc3cnn(C(C)C)c3c2)cc1 [Example 180]
1 to 50 nM

Please give the measured EC50 for this compound: CC#C[C@@H](CC(=O)O)c1ccc(OCc2cc(C)c3nn(Cc4ccccc4)cc3c2)cc1 [Example 127]
1 to 50 nM

---
Please give the measured EC50 for this compound: CC#C[C@@H](CC(=O)O)c1ccc(OCc2ccc3ccn(Cc4cc(F)cc(F)c4)c3c2C)cc1 [Example 52]
50 to 500 nM

Please give the measured EC50 for this compound: O=C(O)CC1CCOc2cc(OCc3ccc4c(cnn4Cc4ccccn4)c3)ccc21 (stereo not shown) [Example 142]
≥ 500 nM

* * *

TESTED_TARGET: human GPR40 (Homo sapiens)
PROTOCOL_TEXT: Induction of Ca2+ (calcium flux assay) using human GPR40 expression cell line
SETTINGS: read-out: EC0.5
pEC50: −log10 of the molar value.
PROPERTY: pEC50

Previously resolved entries follow.
Please give the measured pEC50 for this molecule: `CC#C[C@@H](CC(=O)O)c1ccc(OCc2ccc3c(cnn3CCOC)c2)cc1`
6.30 to 7.30

Please give the measured pEC50 for this molecule: `CC#C[C@@H](CC(=O)O)c1ccc(OCc2cccc3c2c(F)nn3CC(C)C)cc1`
7.30 to 9.00

Please give the measured pEC50 for this molecule: `CC#C[C@@H](CC(=O)O)c1ccc(OCc2ccc3c(c2)c(CC(C)C)nn3C)cc1`
7.30 to 9.00

Please give the measured pEC50 for this molecule: `CC#C[C@@H](CC(=O)O)c1ccc(OCc2ccc3ccn(CC(C)C)c3n2)cc1`
7.30 to 9.00

Please give the measured pEC50 for this molecule: `CC#C[C@@H](CC(=O)O)c1ccc(OCc2ccc3ccn(Cc4cnn(C)c4)c3c2C)cc1`
7.30 to 9.00

---
Please give the measured pEC50 for this molecule: `CC#C[C@@H](CC(=O)O)c1ccc(OCc2ccc3c(C)nn(C(C)C)c3c2)cc1`
7.30 to 9.00

Please give the measured pEC50 for this molecule: `CC#C[C@@H](CC(=O)O)c1ccc(OCc2ccc(C)c3c2c(F)nn3CC(C)C)cc1`
7.30 to 9.00

Please give the measured pEC50 for this molecule: `CC(C)Cn1ccc2ccc(COc3ccc([C@H](CC(=O)O)c4ccon4)cc3)nc21`
7.30 to 9.00

Please give the measured pEC50 for this molecule: `CC#C[C@@H](CC(=O)O)c1ccc(OCc2ccc3cn(Cc4ncccn4)nc3c2)cc1`
≤ 6.30

Please give the measured pEC50 for this molecule: `CC#C[C@@H](CC(=O)O)c1ccc(OCc2cc3c(cnn3Cc3ccccc3)cc2F)cc1`
7.30 to 9.00

Please give the measured pEC50 for this molecule: `CC#C[C@@H](CC(=O)O)c1ccc(OCc2ccc3cn(Cc4ccncn4)nc3c2)cc1`
≤ 6.30

Please give the measured pEC50 for this molecule: `O=C(O)C[C@@H](c1ccc(OCc2ccc3cnn(Cc4ccc(F)cc4)c3c2)cc1)c1ccon1`
8.00

Please give the measured pEC50 for this molecule: `CC#C[C@@H](CC(=O)O)c1ccc(OCc2cc(C)c3nn(CC(C)C)cc3c2)cc1`
8.40

Please give the measured pEC50 for this molecule: `O=C(O)C[C@@H](c1ccc(OCc2ccc3cnn(CC4CCCC4)c3c2)cc1)c1ccon1`
8.00

Data credit: patent US9988379B2
